Source listed as paper PMC8352719.

assayed target: BKα channels (human BK channel α-subunit, HEK-293T) (Homo sapiens)
protocol details: biochemical
reported conditions: IC50(∞), asymptotic IC50 at very depolarized voltages (Eq. 4), 88 µM Ca2+
value kind: pIC50
The quantity pIC50 is defined as the negative base-10 logarithm of the molar concentration.

Item: CN(C)C(=O)C(CCN1CCC(O)(c2ccc(Cl)cc2)CC1)(c1ccccc1)c1ccccc1 [LOP] | pIC50: 6.06

###

assayed target: BKα channels (human BK channel α-subunit, HEK-293T) (Homo sapiens)
protocol details: biochemical
reported conditions: extrapolated IC50, 88 µM Ca2+; 90 mV
value kind: pIC50
The quantity pIC50 is defined as the negative base-10 logarithm of the molar concentration.

Short answer on BKα channels (human BK channel α-subunit, HEK-293T) (Homo sapiens) for `CN(C)C(=O)C(CCN1CCC(O)(c2ccc(Cl)cc2)CC1)(c1ccccc1)c1ccccc1` , pIC50: 6.15

###

assayed target: BKα channels (human BK channel α-subunit, HEK-293T) (Homo sapiens, UniProt Q12791)
Sequence (Q12791 whole entry): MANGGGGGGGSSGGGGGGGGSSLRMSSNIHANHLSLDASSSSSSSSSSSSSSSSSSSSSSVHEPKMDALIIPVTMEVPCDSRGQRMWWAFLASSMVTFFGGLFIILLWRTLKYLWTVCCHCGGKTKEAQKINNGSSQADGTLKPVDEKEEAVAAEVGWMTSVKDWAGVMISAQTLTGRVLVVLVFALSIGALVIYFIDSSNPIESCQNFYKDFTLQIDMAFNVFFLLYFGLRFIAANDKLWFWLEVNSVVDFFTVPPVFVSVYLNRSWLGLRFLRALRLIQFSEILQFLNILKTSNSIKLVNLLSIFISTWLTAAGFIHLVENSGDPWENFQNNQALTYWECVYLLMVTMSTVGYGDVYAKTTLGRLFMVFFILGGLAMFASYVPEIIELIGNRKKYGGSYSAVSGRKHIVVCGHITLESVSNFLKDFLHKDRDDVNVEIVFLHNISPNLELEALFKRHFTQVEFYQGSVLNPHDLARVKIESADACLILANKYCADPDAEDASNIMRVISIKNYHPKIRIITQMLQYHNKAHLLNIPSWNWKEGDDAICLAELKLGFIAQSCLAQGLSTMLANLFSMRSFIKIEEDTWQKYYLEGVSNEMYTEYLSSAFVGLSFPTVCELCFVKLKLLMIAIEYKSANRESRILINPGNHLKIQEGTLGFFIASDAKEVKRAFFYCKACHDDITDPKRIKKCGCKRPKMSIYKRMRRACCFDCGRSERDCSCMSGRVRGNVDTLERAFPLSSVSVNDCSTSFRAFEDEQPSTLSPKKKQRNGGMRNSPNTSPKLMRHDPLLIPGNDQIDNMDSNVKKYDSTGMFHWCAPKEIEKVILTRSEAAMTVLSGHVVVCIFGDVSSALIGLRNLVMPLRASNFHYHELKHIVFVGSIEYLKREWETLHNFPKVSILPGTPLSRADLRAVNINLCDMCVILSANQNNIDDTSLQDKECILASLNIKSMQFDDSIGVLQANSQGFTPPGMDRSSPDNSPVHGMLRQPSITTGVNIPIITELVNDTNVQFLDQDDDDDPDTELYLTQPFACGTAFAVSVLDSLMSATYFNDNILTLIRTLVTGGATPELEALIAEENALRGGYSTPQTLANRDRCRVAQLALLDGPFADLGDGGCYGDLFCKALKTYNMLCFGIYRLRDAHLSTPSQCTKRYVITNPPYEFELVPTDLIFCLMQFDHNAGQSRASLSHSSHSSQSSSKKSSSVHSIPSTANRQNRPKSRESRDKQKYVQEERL
protocol details: biochemical
reported conditions: IC50, 88 μM Ca2+; Vm 50 mV; Hill fit of normalized G vs [LOP]
pIC50: −log10 of the molar value.
value kind: pIC50

Short answer on BKα channels (human BK channel α-subunit, HEK-293T) (Homo sapiens, UniProt Q12791) for `CN(C)C(=O)C(CCN1CCC(O)(c2ccc(Cl)cc2)CC1)(c1ccccc1)c1ccccc1` , pIC50: ~6.03
